system: brain (striatum) of the rat; assay: Concentration of dopamine, its metabolites, 5-HT and 5-HIAA in the striatum of benserazide-pretreated rats; format: in vivo; conditions: 25 mg/kg L-DOPA or L-DOPA eq. ip, 30 min after benserazide; tissue 90 min later
metric: 3-MT concentration in striatum (MV) (pg per mg striatum)
Supply the numeric figure in pg per mg striatum, leaving out any unit text.

Use the examples below as a reference point.
- compound: "CC(=O)Oc1ccc(CC(NC(=O)CCCCC2CCSS2)C(=O)O)cc1OC(C)=O (stereo not shown) [compound 2]"
  metric: "3-MT concentration in striatum (MV)"
  numericReadout: 267
- compound: "O=C(CCCCC1CCSS1)NC(Cc1ccc(O)c(O)c1)C(=O)O [compound 3, L-DOPA-(D,L)-lipoic acid amide]"
  metric: "3-MT concentration in striatum (MV)"
  numericReadout: 292
- compound: "NC(Cc1ccc(O)c(O)c1)C(=O)O [L-DOPA, reference compound]"
  metric: "3-MT concentration in striatum (MV)"
  numericReadout: 312

Next:
input: API: value(readout=3-MT concentration in striatum (MV), system=brain (striatum) of the rat) for record CC(=O)Oc1ccc(C[C@H](N)C(=O)OCCOC(=O)CCCCC2CCSS2)cc1OC(C)=O (stereo partly shown) [compound 1]
output: 308

---

Tested on: brain (striatum) of the rat
Test: Concentration of dopamine, its metabolites, 5-HT and 5-HIAA in the striatum of benserazide-pretreated rats
Assay type: in vivo
Conditions: 25 mg/kg L-DOPA or L-DOPA eq. ip, 30 min after benserazide; tissue 90 min later
Procedure: The rats were pretreated with benserazide, an inhibitor of the aromatic amino acid decarboxylase, in order to reduce the degradation of the test compounds in the blood and to thus provide sufficient concentration of dopamine and α-lipoic acid in the brain. After 30 minutes, L-DOPA (standard therapy for Parkinson's disease) or compound 1, compound 2, compound 3 in doses equivalent to L-DOPA were injected into the peritoneum (intraperitoneal, ip). […]
metric: Dopamine concentration in striatum (MV) (pg per mg striatum)
Write down the numeric answer in pg per mg striatum and omit the unit.

Examples from the recorded data:
- compound: "O=C(CCCCC1CCSS1)NC(Cc1ccc(O)c(O)c1)C(=O)O [compound 3, L-DOPA-(D,L)-lipoic acid amide]"
  experimentalSystem: "brain (striatum) of the rat"
  Dopamine concentration in striatum (MV), pg per mg striatum: 10539
- compound: "CC(=O)Oc1ccc(C[C@H](N)C(=O)OCCOC(=O)CCCCC2CCSS2)cc1OC(C)=O (stereo partly shown)"
  experimentalSystem: "brain (striatum) of the rat"
  Dopamine concentration in striatum (MV), pg per mg striatum: 11244
- compound: "NC(Cc1ccc(O)c(O)c1)C(=O)O [L-DOPA, reference compound]"
  experimentalSystem: "brain (striatum) of the rat"
  Dopamine concentration in striatum (MV), pg per mg striatum: 10108

# next compound below
input: Item CC(=O)Oc1ccc(CC(NC(=O)CCCCC2CCSS2)C(=O)O)cc1OC(C)=O (stereo not shown) with brain (striatum) of the rat - Dopamine concentration in striatum (MV)?
output: 10512

---

system: brain (striatum) of the rat; assay: Concentration of dopamine, its metabolites, 5-HT and 5-HIAA in the striatum of benserazide-pretreated rats; format: in vivo; conditions: 50 mg/kg L-DOPA or L-DOPA eq. ip, 30 min after benserazide; tissue 90 min later
HVA concentration in striatum (MV) overview
# number only, unit pg per mg striatum dropped from output

Observe how each entry below is paired with its result.
- compound: "CC(=O)Oc1ccc(C[C@H](N)C(=O)OCCOC(=O)CCCCC2CCSS2)cc1OC(C)=O (stereo partly shown)"
  HVA concentration in striatum (MV) [pg per mg striatum]: 4314
- compound: "O=C(CCCCC1CCSS1)NC(Cc1ccc(O)c(O)c1)C(=O)O [compound 3, L-DOPA-(D,L)-lipoic acid amide]"
  HVA concentration in striatum (MV) [pg per mg striatum]: 1244
- compound: "NC(Cc1ccc(O)c(O)c1)C(=O)O [L-DOPA, reference compound]"
  HVA concentration in striatum (MV) [pg per mg striatum]: 4550

# input for lookup
input: Form field: reported HVA concentration in striatum (MV) of CC(=O)Oc1ccc(CC(NC(=O)CCCCC2CCSS2)C(=O)O)cc1OC(C)=O (stereo not shown)
output: 1742
